The measurements presented in this section are drawn from ChEMBL document CHEMBL1140554.

STUDY_TARGET: Tyrosine-protein phosphatase non-receptor type 1 (Homo sapiens, UniProt P18031)
Sequence (P18031 whole entry): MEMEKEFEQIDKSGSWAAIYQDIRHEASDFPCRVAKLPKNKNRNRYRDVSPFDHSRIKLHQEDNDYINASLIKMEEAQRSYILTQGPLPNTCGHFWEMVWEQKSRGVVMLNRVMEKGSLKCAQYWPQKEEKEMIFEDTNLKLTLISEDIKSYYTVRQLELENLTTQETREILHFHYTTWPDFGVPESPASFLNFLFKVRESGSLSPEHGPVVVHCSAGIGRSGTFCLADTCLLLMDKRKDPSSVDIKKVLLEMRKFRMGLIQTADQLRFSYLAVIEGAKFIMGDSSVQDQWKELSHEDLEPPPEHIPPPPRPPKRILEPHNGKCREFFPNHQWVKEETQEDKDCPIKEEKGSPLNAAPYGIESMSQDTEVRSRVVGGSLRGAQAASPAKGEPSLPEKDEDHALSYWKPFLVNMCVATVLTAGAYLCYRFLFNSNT
ASSAY: Inhibition of PTP1B in a cell-free assay
MEASURE: pIC50
The read-out pIC50 is expressed as -log10 of concentration in moles per litre.

Input: Check the records and state pIC50 for Cc1nc(-c2ccc(Cl)cc2)sc1CCOc1cc(C(O)(C(=O)O)C(F)(F)F)ccc1OCc1ccccc1 (stereo unspecified)
Output: 5.52

====

STUDY_TARGET: Tyrosine-protein phosphatase non-receptor type 1 (Homo sapiens)
ASSAY: Inhibition of PTP1B expressed in Sf9 cells
pIC50: −log10 of the molar value.
Label TRUE when pIC50 is at or above 4; otherwise label FALSE.

Cc1nc(-c2ccc(Cl)cc2)sc1CCOc1cccc(C(O)(C(=O)O)C(F)(F)F)c1 (configuration not stated) = TRUE

Input: Identify whether the reported pIC50 of the following compound is 4 or greater: Cc1nc(-c2ccc(Cl)cc2)sc1CCOc1ccc2c(c1)c(C(O)(C(=O)O)C(F)(F)F)cn2COCC[Si](C)(C)C (configuration not stated)
Output: TRUE

Input: # bool: pIC50 of Cc1nc(-c2ccc(Cl)cc2)sc1CCOc1ccc2c(c1)c(C(O)(C(=O)O)C(F)(F)F)cn2Cc1ccccc1 (configuration not stated) >= 4
Output: TRUE

====

STUDY_TARGET: Tyrosine-protein phosphatase non-receptor type 1 (Homo sapiens)
Sequence (P18031 whole entry): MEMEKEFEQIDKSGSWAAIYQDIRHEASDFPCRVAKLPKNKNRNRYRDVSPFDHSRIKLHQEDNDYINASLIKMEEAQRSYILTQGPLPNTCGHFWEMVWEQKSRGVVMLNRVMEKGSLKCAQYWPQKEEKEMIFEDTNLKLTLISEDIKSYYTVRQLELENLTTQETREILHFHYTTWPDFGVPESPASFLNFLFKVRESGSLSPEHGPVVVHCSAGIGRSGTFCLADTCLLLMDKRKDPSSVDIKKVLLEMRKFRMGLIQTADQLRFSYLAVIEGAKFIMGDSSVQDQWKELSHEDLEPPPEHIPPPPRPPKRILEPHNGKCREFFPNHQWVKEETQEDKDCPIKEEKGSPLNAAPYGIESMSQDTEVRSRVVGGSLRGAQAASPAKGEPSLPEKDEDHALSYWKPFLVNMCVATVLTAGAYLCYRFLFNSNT
ASSAY: Inhibition of PTP1B expressed in Sf9 cells
Here, each record is paired with measured pIC50 data.
Expect pIC50 as a plain number equal to -log10 of the molar concentration.

Previously resolved entries follow.
CCCCCOc1ccc(C(O)(C(=O)O)C(F)(F)F)cc1OCCc1sc(-c2ccc(Cl)cc2)nc1C (stereo not given) = 4.92
COC(=O)c1c(O)cccc1OCCOc1ccc2c(c1)c(C(O)(C(=O)O)C(F)(F)F)cn2COCC[Si](C)(C)C (stereo not given) = 3.91
O=C(c1ccccc1)C(c1ccccc1)c1ccc(C(F)(F)P(=O)(O)O)cc1 (stereo not given) = 5.92
Cc1nc(-c2ccc(Cl)cc2)sc1CCOc1cc(C(O)(C(=O)O)C(F)(F)F)ccc1OCc1ccc(F)cc1 (stereo not given) = 4.64

Let's switch to this molecule now.
Input: # return recorded pIC50 for input COCn1cc(C(O)(C(=O)O)C(F)(F)F)c2ccc(OCc3ccccc3)cc21 (stereo not given)
Output: 3.42
